Provenance of the data: patent US12433953B2

- Test system: EGFR Fab binding to the EGFR antigen
- Test Protocol: ELISA competitive inhibition of EGFR Fab binding to EGFR antigen
- Study Conditions: Table 20
Measured Quantity: Fold shift in IC50 relative to Peptide-8 (IC50 Ala mutant/IC50 Peptide-8)
// return just the number, without any unit appended

Please review the entries below; each comes with its answer.
CC[C@H](C)[C@@H]1NC(=O)[C@@H]2CCCN2C(=O)[C@H](CCCCN)NC(=O)[C@H](C)NC(=O)[C@H](C(C)C)NC(=O)[C@H](CC(=O)O)NC(=O)[C@H](C)NC(=O)[C@H](Cc2c[nH]cn2)NC(=O)[C@H](CO)NC(=O)[C@H](CCCNC(=N)N)NC(=O)[C@@H](NC(=O)[C@@H]2CCCN2)CSSC[C@@H](C(=O)N[C@H](C(=O)O)C(C)C)NC1=O [Peptide-21] | 0.5
CC[C@H](C)[C@@H]1NC(=O)[C@H](Cc2c[nH]cn2)NC(=O)[C@H](CO)NC(=O)[C@H](C)NC(=O)[C@@H](NC(=O)[C@@H]2CCCN2)CSSC[C@@H](C(=O)N[C@H](C(=O)O)C(C)C)NC(=O)[C@H]([C@@H](C)CC)NC(=O)[C@@H]2CCCN2C(=O)[C@H](CCCCN)NC(=O)[C@H](C)NC(=O)[C@H](C(C)C)NC(=O)[C@H](CC(=O)O)NC1=O [Peptide-18] | 1.4
CC[C@H](C)[C@@H]1NC(=O)[C@H](Cc2c[nH]cn2)NC(=O)[C@H](CO)NC(=O)[C@H](CCCNC(=N)N)NC(=O)[C@@H](NC(=O)[C@H](C)N)CSSC[C@@H](C(=O)N[C@H](C(=O)O)C(C)C)NC(=O)[C@H]([C@@H](C)CC)NC(=O)[C@@H]2CCCN2C(=O)[C@H](CCCCN)NC(=O)[C@H](C)NC(=O)[C@H](C(C)C)NC(=O)[C@H](CC(=O)O)NC1=O [Peptide-17] | 4.1
CC[C@H](C)[C@@H]1NC(=O)[C@H](Cc2c[nH]cn2)NC(=O)[C@H](C)NC(=O)[C@H](CCCNC(=N)N)NC(=O)[C@@H](NC(=O)[C@@H]2CCCN2)CSSC[C@@H](C(=O)N[C@H](C(=O)O)C(C)C)NC(=O)[C@H]([C@@H](C)CC)NC(=O)[C@@H]2CCCN2C(=O)[C@H](CCCCN)NC(=O)[C@H](C)NC(=O)[C@H](C(C)C)NC(=O)[C@H](CC(=O)O)NC1=O [Peptide-19] | 24

// next entry
Prompt: Under EGFR Fab binding to the EGFR antigen: Fold shift in IC50 relative to Peptide-8 (IC50 Ala mutant/IC50 Peptide-8) value of CC[C@H](C)[C@@H]1NC(=O)[C@H](C)NC(=O)[C@H](CO)NC(=O)[C@H](CCCNC(=N)N)NC(=O)[C@@H](NC(=O)[C@@H]2CCCN2)CSSC[C@@H](C(=O)N[C@H](C(=O)O)C(C)C)NC(=O)[C@H]([C@@H](C)CC)NC(=O)[C@@H]2CCCN2C(=O)[C@H](CCCCN)NC(=O)[C@H](C)NC(=O)[C@H](C(C)C)NC(=O)[C@H](CC(=O)O)NC1=O [Peptide-20] ?
Completion: 2.8

* * *

- Target: EGFR Fab
- Test Protocol: ELISA binding of peptides to EGFR Fab
- Study Conditions: read-out: EC50 for peptide binding to αEGFR Fab; Table 15
Measured Quantity: EC50

CSCC[C@@H]1NC(=O)[C@H](CCCNC(=N)N)NC(=O)[C@H](C(C)C)NC(=O)[C@H](CCSC)NC(=O)[C@H](CCCNC(=N)N)NC(=O)[C@H](Cc2c[nH]cn2)NC(=O)[C@H](CC(C)C)NC(=O)CNC(=O)[C@H](CC(=O)O)NC(=O)CNC(=O)[C@@H](NC(=O)CN)CSSC[C@@H](C(=O)O)NC(=O)[C@H](Cc2c[nH]c3ccccc23)NC1=O [Peptide-12] | > 1000 nM
CC(C)C[C@H](NC(=O)[C@@H]1CSSC[C@H](NC(=O)[C@@H](N)Cc2c[nH]c3ccccc23)C(=O)N[C@@H]([C@@H](C)O)C(=O)N[C@@H](C(C)C)C(=O)N[C@@H](Cc2c[nH]c3ccccc23)C(=O)NCC(=O)N[C@@H](CC(=O)O)C(=O)N[C@@H](CCCNC(=N)N)C(=O)N[C@@H](CCC(N)=O)C(=O)N[C@@H](CCC(=O)O)C(=O)N[C@@H](C(C)C)C(=O)N[C@@H](CCCNC(=N)N)C(=O)N1)C(=O)O [Peptide-7] | > 1000 nM

Prompt: For the compound shown here, CSCC[C@@H]1NC(=O)[C@H](C(C)C)NC(=O)[C@H](Cc2c[nH]c3ccccc23)NC(=O)[C@H](Cc2c[nH]cn2)NC(=O)[C@H](C)NC(=O)[C@@H](NC(=O)CNC(=O)CN)CSSC[C@@H](C(=O)N[C@@H](CCC(N)=O)C(=O)O)NC(=O)[C@H](Cc2c[nH]c3ccccc23)NC(=O)[C@H](CO)NC(=O)[C@H](CC(C)C)NC(=O)[C@H](CCCNC(=N)N)NC1=O [Peptide-10] , give the reported EC50.
Completion: > 1000 nM

Prompt: For the compound shown here, CC[C@H](C)[C@@H]1NC(=O)[C@H](Cc2c[nH]cn2)NC(=O)[C@H](CO)NC(=O)[C@H](CCCNC(=N)N)NC(=O)[C@@H](NC(=O)[C@@H]2CCCN2)CSSC[C@@H](C(=O)N[C@H](C(=O)O)C(C)C)NC(=O)[C@H]([C@@H](C)CC)NC(=O)[C@@H]2CCCN2C(=O)[C@H](CCCCN)NC(=O)[C@H](C)NC(=O)[C@H](C(C)C)NC(=O)[C@H](CC(=O)O)NC1=O [Peptide-8] , give the reported EC50.
Completion: 8 nM

Prompt: For the compound shown here, CSCC[C@@H]1NC(=O)[C@H](Cc2c[nH]c3ccccc23)NC(=O)[C@H](Cc2ccc(O)cc2)NC(=O)[C@H](Cc2c[nH]cn2)NC(=O)[C@H](C(C)C)NC(=O)[C@@H](NC(=O)[C@@H](NC(=O)[C@@H](N)CO)[C@@H](C)O)CSSC[C@@H](C(=O)N[C@H](C(=O)O)C(C)C)NC(=O)[C@H](CO)NC(=O)[C@H](CCCNC(=N)N)NC(=O)[C@H](CC(C)C)NC(=O)[C@H](CCC(N)=O)NC1=O [Peptide-9] , give the reported EC50.
Completion: > 1000 nM

Prompt: For the compound shown here, CSCC[C@@H]1NC(=O)[C@H](CC(C)C)NC(=O)[C@H](Cc2ccccc2)NC(=O)[C@H](Cc2c[nH]cn2)NC(=O)[C@H](CCC(N)=O)NC(=O)[C@@H](NC(=O)CNC(=O)[C@@H](N)CC(C)C)CSSC[C@@H](C(=O)NCC(=O)O)NC(=O)[C@H]([C@@H](C)O)NC(=O)[C@H](C)NC(=O)[C@H](CC(C)C)NC(=O)[C@H](CCCCN)NC1=O [Peptide-11] , give the reported EC50.
Completion: 42 nM
